The measurements presented in this section are drawn from paper PMC2785482.

biological target: AKR1C3 (Homo sapiens); construct: Recombinant N-terminal His-tagged AKR1C3; experiment: recombinant AKR1C3 phenanthrenequinone reduction, NADPH absorbance at […] nm
Sequence (P42330 whole entry): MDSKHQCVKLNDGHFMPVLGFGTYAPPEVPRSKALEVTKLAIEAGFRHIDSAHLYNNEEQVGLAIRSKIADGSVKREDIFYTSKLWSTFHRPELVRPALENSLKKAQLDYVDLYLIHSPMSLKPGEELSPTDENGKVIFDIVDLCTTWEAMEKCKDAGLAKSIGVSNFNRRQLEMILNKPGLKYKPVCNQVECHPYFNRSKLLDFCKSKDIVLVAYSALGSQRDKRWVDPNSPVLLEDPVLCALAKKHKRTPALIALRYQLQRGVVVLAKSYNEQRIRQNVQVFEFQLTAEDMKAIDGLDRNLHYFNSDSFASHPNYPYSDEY
OBSERVED PROPERTY: IC50 (nM)

>  <COMPOUND>
CC(=O)O[C@]1(C(C)=O)CC[C@H]2[C@@H]3C[C@H](C)C4=CC(=O)CC[C@]4(C)[C@H]3CC[C@@]21C [MPA, medroxyprogesterone acetate]

>  <DISPLAY UNIT>
nM

>  <NUMERIC RESULT>
1100

$$$$
